- study.target: Myeloperoxidase (Homo sapiens)
- procedure.text: Inhibition of recombinant MPO (unknown origin) assessed as reduction in TMB peroxidation by measuring residual activity at 5 uM in absence of H2O2 incubated for 5 mins followed by 100 fold enzyme dilution relative to control
Catalogue of molecules with associated Activity

| molecule | study.target | Activity |
| --- | --- | --- |
| COc1ccc2c(C)nc(NC(=N)N)nc2c1 | Myeloperoxidase (Homo sapiens) | 84% |
| Cc1cccc(Nc2ccccc2C(=O)O)c1C | Myeloperoxidase (Homo sapiens) | 87% |
| O=c1c(O)c(-c2ccc(O)cc2)oc2cc(O)cc(O)c12 | Myeloperoxidase (Homo sapiens) | 78% |
| Fc1ccc2[nH]c([C@@H]3CCN(CC4NC=CN4)C3)nc2c1 | Myeloperoxidase (Homo sapiens) | 83% |
| NNc1nncc2ccccc12 [HYDRALAZINE] | Myeloperoxidase (Homo sapiens) | 76% |
| CC(C)NCC(=O)c1nc2cc(F)ccc2[nH]1 | Myeloperoxidase (Homo sapiens) | 79% |
| COc1cc(N[C@H](C)CCCN)c2ncccc2c1 | Myeloperoxidase (Homo sapiens) | 86% |
| O=c1c(O)c(-c2ccc(O)c(O)c2)oc2cc(O)cc(O)c12 | Myeloperoxidase (Homo sapiens) | 72% |
